Reference source for all entries: patent US20190284293A1

# Assayed System: T1, CD32a-R131 (FcgRIIa-R131) (Homo sapiens, UniProt P12318, H167R)
# T1 sequence (P12318 34-217 H167R limits assumed): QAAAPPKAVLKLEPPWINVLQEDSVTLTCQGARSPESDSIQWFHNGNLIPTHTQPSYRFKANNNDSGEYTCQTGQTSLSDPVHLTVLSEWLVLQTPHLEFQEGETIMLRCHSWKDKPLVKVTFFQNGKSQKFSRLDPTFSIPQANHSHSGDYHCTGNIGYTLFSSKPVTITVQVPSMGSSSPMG
# Assay Name: SPR, antibody binding to anti-his Fab captured FcgR-his (% Rmax)
# Experimental Parameters: 1 μM antibody
Outcome Measure: % Rmax hCD32a-R131 (%)
# output: bare number, implied unit %

Consider the molecule mAb4-IgG2.3 (protein, left off: another chain or arm of the molecule) constant: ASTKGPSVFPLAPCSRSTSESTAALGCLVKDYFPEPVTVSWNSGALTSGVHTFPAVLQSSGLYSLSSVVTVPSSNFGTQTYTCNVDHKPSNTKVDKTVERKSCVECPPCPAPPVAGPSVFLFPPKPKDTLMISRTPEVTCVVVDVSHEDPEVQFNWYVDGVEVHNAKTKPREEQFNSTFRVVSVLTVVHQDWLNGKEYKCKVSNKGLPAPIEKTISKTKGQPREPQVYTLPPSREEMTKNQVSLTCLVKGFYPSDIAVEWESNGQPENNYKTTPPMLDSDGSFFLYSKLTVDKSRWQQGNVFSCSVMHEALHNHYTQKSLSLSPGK and give its recorded % Rmax hCD32a-R131.
6
